# target or system: UniProtKB P12822
# Sequence (P12822 whole entry): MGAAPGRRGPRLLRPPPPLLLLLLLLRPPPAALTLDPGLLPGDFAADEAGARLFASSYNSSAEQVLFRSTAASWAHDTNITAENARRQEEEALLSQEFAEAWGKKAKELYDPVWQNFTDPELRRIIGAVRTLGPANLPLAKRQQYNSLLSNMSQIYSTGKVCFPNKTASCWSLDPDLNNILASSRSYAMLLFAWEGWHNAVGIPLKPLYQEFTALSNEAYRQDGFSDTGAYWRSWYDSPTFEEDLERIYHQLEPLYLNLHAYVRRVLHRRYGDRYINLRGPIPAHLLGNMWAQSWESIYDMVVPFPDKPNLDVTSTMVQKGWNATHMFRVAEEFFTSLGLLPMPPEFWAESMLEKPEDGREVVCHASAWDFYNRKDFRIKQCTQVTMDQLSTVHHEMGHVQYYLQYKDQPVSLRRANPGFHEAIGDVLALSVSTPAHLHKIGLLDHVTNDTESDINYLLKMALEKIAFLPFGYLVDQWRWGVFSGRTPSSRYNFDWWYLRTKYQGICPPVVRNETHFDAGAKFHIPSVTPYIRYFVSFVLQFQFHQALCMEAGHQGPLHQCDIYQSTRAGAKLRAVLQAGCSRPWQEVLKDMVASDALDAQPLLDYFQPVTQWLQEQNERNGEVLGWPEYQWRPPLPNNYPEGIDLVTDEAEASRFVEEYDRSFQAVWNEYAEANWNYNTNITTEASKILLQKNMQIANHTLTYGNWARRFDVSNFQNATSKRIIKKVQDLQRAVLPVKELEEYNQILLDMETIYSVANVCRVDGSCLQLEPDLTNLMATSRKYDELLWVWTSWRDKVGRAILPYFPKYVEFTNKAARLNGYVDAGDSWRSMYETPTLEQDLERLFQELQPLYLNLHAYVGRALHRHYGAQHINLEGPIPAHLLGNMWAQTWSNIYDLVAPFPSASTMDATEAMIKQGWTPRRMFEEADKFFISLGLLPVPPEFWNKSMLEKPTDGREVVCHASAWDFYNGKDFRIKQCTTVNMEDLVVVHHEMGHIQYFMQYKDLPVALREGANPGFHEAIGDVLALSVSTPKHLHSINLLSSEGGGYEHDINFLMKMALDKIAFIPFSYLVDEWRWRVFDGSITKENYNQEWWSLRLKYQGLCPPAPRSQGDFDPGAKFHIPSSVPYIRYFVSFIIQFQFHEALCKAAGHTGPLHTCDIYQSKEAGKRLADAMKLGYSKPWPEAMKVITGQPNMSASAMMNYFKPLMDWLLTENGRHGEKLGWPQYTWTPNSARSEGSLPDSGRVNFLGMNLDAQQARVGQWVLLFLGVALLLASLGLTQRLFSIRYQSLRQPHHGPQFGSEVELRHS
# assay protocol: biochemical
# Assay type: tissue-based, Lung
property: IC50

Known IC50 results, listed for orientation:
Name the reported IC50 value associated with the molecule "COC(=O)[C@H](c1ccccc1Cl)N1CCc2sccc2C1"
Not Active

Please do the same for NS(=O)(=O)c1cc2c(cc1Cl)NCNS2(=O)=O [HYDROCHLOROTHIAZIDE] as well.
Not Active

And what about the molecule "O=c1cc(-c2ccccc2)oc2c1ccc1ccccc12" ?
Not Active

Thanks! And "CC(C)[C@H](N)C(=O)OCCOCn1cnc2c(=O)nc(N)[nH]c21" ?
Not Active

Next up: "COC(=O)[C@@H]1[C@H]2C[C@H]3c4[nH]c5ccccc5c4CCN3C[C@@H]2CC[C@@H]1O"
Not Active

Others:
Return reported IC50; argument: "O=C(O)c1cn(C2CC2)c2cc(N3CCNCC3)c(F)cc2c1=O"
Not Active

Next molecule up: CC1(C)[C@H]2CC[C@]1(C)C(=O)C2 [(-)-CAMPHOR]
Not Active

Try this molecule next: "CC(C)(C)NC(=O)[C@@H]1CN(Cc2cccnc2)CCN1C[C@@H](O)C[C@@H](Cc1ccccc1)C(=O)N[C@H]1c2ccccc2C[C@H]1O.O"
Not Active

----------
# target or system: Cytochrome P450 2C9 (Homo sapiens, UniProt P11712); note: in other assays of this panel Not Active means under 50% inhibition at 10 µM
# Sequence (P11712 whole entry): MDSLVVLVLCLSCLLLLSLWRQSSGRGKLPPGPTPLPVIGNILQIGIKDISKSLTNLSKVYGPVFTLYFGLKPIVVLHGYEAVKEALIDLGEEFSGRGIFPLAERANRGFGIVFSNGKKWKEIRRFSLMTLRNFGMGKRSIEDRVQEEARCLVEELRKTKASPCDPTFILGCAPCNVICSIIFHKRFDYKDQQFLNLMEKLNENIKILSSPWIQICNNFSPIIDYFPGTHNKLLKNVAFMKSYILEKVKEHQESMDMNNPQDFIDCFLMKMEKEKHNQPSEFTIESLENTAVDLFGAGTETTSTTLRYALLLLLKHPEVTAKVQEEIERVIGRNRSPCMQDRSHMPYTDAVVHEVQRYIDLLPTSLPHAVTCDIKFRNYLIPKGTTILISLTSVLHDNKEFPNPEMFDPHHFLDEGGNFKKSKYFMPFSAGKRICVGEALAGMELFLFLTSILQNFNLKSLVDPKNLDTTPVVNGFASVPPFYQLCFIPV
property: IC50 (µM)
Express the result in µM but write the number alone.

Use these answered entries as a reference point.
Can you share its IC50? I mean this compound: Clc1ccccc1C(c1ccccc1)(c1ccccc1)n1ccnc1 [CLOTRIMAZOLE]
0.016

What do you have for O=C1CCc2cc(OCCCCc3nnnn3C3CCCCC3)ccc2N1 [CILOSTAZOL] ?
10

Continue with NNc1ccccc1 [PHENYLHYDRAZINE]
6

Others:
Fill in the blank: the reported IC50 of C[C@]12Cc3c[nH]nc3C[C@@H]1CC[C@@H]1[C@@H]2CC[C@@]2(C)[C@H]1CC[C@]2(C)O [STANOZOLOL] is ____.
1.13

----------
# target or system: Acetylcholinesterase (Homo sapiens)
# Sequence (P22303 whole entry): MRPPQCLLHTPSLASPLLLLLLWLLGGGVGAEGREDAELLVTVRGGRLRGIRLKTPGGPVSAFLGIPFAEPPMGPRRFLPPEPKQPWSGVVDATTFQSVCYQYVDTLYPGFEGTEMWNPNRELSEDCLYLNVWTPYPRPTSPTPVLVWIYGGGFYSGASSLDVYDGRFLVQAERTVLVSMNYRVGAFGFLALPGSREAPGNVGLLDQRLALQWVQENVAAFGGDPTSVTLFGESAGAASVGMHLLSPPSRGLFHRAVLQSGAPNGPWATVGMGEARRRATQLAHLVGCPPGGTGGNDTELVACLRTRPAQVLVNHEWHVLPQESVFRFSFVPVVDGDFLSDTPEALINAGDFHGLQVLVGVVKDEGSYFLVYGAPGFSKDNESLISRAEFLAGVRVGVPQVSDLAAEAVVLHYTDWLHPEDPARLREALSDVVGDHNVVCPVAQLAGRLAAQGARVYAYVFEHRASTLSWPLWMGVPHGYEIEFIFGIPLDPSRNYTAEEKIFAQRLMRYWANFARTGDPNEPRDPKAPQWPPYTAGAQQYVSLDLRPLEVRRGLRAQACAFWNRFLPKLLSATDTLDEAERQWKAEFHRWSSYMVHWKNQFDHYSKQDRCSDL
# assay protocol: DRUGMATRIX: Acetylcholinesterase enzyme inhibition (substrate: acetylthiocholine)
# Type: cell-based, HEK293
# condition summary: hek293; Not Active = under 50% inhibition at 10 µM
property: IC50

Can you share its IC50? I mean this compound: "C=C(C)[C@@H]1[C@H]2OC(=O)[C@@H]1[C@]1(O)C[C@H]3O[C@]34C(=O)O[C@H]2[C@]14C"
Not Active

Input "CN1C[C@H](C(=O)N[C@]2(C)O[C@@]3(O)[C@@H]4CCCN4C(=O)[C@H](Cc4ccccc4)N3C2=O)C=C2c3cccc4[nH]cc(c34)C[C@H]21"
Not Active

Entry "Cc1cc(NS(=O)(=O)c2ccc(N)cc2)no1" please
Not Active

----------
# target or system: Substance-P receptor (Homo sapiens, UniProt P25103); note: in other assays of this panel Not Active means under 50% inhibition at 10 µM
# Sequence (P25103 whole entry): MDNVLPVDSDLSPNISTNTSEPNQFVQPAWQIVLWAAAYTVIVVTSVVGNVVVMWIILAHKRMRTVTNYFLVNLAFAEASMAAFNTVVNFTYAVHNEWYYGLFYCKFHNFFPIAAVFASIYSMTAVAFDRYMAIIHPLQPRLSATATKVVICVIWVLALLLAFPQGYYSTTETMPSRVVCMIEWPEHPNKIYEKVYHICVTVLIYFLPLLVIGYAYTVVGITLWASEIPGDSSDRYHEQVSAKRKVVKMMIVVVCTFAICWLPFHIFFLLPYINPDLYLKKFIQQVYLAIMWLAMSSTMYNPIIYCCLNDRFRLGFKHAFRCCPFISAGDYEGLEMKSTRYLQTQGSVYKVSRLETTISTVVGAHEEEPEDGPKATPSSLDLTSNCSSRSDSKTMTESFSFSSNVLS
# Format: cell membranes, CHO, Membrane
# condition summary: cho
property: IC50

Some compounds with known IC50 results, for comparison:
Bench note: what IC50 did NC(CO)(CO)CO [TROMETHAMINE] show?
Not Active

Same thing, different compound: CNC(=O)Oc1ccc2c(c1)[C@]1(C)CCN(C)[C@@H]1N2C [PHYSOSTIGMINE]
Not Active

What about this compound? CC(=O)O[C@]1(C(C)=O)CC[C@H]2[C@@H]3C=C(Cl)C4=CC(=O)CC[C@]4(C)[C@H]3CC[C@@]21C [CHLORMADINONE ACETATE]
Not Active

CN1C[C@H](C(=O)N[C@]2(C)O[C@@]3(O)[C@@H]4CCCN4C(=O)[C@H](Cc4ccccc4)N3C2=O)C=C2c3cccc4[nH]cc(c34)C[C@H]21 [ERGOTAMINE] ?
Not Active

Others:
IC50 lookup needed for COC(=O)C1=C(C)NC(C)=C(C(=O)OC)C1c1ccccc1[N+](=O)[O-] [NIFEDIPINE] , thanks.
Not Active

Entry C=C1C(=O)O[C@@H]2C3O[C@]3(C)CC/C=C(\C)CC[C@@H]12 (some centres undefined) please
Not Active

Moving on to the next compound: O=P1(NCCCl)OCCCN1CCCl (centres undefined) [IFOSFAMIDE]
Not Active

----------
# target or system: Thromboxane-A synthase (Homo sapiens, UniProt P24557);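 note: enzyme inhibition assay with PGH2 supplied as substrate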; note: in other assays of this panel Not Active means under 50% inhibition at 10 µM
# Sequence (P24557 whole entry): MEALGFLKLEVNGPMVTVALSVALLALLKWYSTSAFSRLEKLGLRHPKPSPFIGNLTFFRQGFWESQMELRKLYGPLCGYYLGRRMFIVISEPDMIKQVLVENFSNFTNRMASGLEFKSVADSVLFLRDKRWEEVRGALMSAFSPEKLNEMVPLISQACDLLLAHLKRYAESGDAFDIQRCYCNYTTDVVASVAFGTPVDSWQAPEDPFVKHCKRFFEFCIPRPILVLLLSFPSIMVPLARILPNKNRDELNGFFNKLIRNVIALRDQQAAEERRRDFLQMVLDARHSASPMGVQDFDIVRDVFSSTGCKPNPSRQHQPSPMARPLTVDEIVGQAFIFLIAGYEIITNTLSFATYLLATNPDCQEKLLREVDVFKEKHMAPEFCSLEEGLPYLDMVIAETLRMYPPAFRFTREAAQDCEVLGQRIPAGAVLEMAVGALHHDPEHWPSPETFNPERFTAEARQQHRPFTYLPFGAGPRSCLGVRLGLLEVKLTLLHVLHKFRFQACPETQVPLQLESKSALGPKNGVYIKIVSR
# assay protocol: biochemical
# Type: tissue-based, Platelet
# condition summary: platelet
property: IC50

Here's what some known entries look like.
Given "OCc1ccccc1" , state its recorded IC50.
Not Active

Another compound: "COC1=CC(=O)C[C@@H](C)[C@]12Oc1c(Cl)c(OC)cc(OC)c1C2=O"
Not Active

Next: "Nc1nc(=O)[nH]cc1F"
Not Active

Ok, now "CO[C@@H]1[C@@H](O[C@@H]2O[C@H](C)[C@@H](O[C@H]3C[C@@](C)(O)[C@@H](OC(=O)CC(C)C)[C@H](C)O3)[C@H](N(C)C)[C@H]2O)[C@@H](CC=O)C[C@@H](C)[C@@H](O)/C=C/C=C/C[C@@H](C)OC(=O)C[C@H]1O"
Not Active

Another compound to look at: "C[C@]12CCC(=O)C=C1CC[C@@H]1[C@@H]2C(=O)C[C@@]2(C)[C@H]1CC[C@]2(O)C(=O)CO"
Not Active

Please answer likewise for N=C(N)NCCCCNC(=N)N.O=S(=O)(O)O [ARCAINE SULFATE]
Not Active

Next:
Returns the measured IC50 for the input compound. Input: CN(C)CCCC1(c2ccc(F)cc2)OCc2cc(C#N)ccc21 (stereo not drawn)
Not Active

# iterate: "CN[C@H](CC(C)C)C(=O)N[C@H]1C(=O)N[C@@H](CC(N)=O)C(=O)N[C@H]2C(=O)N[C@H]3C(=O)N[C@H](C(=O)N[C@H](C(=O)O)c4cc(O)cc(O)c4-c4cc3ccc4O)[C@H](O)c3ccc(c(Cl)c3)Oc3cc2cc(c3O[C@@H]2O[C@H](CO)[C@@H](O)[C@H](O)[C@H]2O[C@H]2C[C@](C)(N)[C@H](O)[C@H](C)O2)Oc2ccc(cc2Cl)[C@H]1O"
Not Active
